# Test system: SF-268 CNS
# METHOD_NOTES: NCI tumour cell line growth inhibition, 48 h
MEASURED_ENDPOINT: TGI

MOLECULE: Cc1cc(C)c(S(=O)(=O)N2CCN(c3cc4c(cc3F)c(=O)c(C(=O)O)cn4C3CC3)CC2)c(C)c1
MEASURED_ENDPOINT: TGI
MEASURED_VALUE: > 100 µM

For each listed entry, give its TGI.
1. Cn1ccnc1C(=O)/C=C/c1ccc(C(=O)Nc2ccccc2F)cc1
2. C=C1CC[C@@H]2C(C)(C)C(O)CCC2(C)C1COc1ccc2ccc(=O)oc2c1 (some centres undefined)
3. O=c1c2sc3ccccc3c2nnn1-c1ccc(F)c(Cl)c1
4. COc1nc(NC2OCC(O)C(O)C2O)c(NC2OCC(O)C(O)C2O)c(=O)n1C (centres undefined)
5. CCOC(=O)C(C(N)=O)c1nc2cc([N+](=O)[O-])ccc2nc1/C=C(\O)c1ccccc1 (centres undefined)

9.16 µM
36.7 µM
55 µM
> 100 µM
32.1 µM

For each listed entry, give its TGI.
1. COc1ccc(/C=C/C(=O)Oc2ccc(/C=C3\CCCCC3=O)cc2)cc1
2. Cc1ccncc1N1CCN(c2ccnc(Cl)c2)C1=O
3. O=C(Cc1nc2cccnc2nc1/C=C(\O)c1ccccc1)c1ccccc1
4. O=C(N/N=C\c1cc(Cl)ccc1O)c1ccncc1
5. C[N+](C)(C)CC1CCc2ccccc2C1=O (centres undefined)
6. O=c1c2c3c(sc2n2c(CCl)nnc2n1Cc1ccccc1)CCCC3
7. CCCCCCC(C)c1ccc2c(c1)C(=O)c1nc3ccncc3c(=O)n1-2 (centres undefined)

["> 69.5 µM", "> 100 µM", "46 µM", "> 100 µM", "47.4 µM", "3.72 µM", "> 100 µM"]

For each listed entry, give its TGI.
1. N#Cc1c(-c2ccc(Cl)cc2)cc(-c2cc(O)ccc2O)nc1N
2. C=C1CC(c2ccc(O)c(OC)c2)Oc2c(OC)cccc21 (centres undefined)
3. Cn1cc(-c2ccc(-c3cn(C)c4ncccc34)[nH]2)c2cccnc21
4. CC(C)(C)c1cc(COc2cc(COc3ccc(-c4c5c(nc6c4CCc4ccc(-c7c8ccccc8nc8ccccc78)cc4-6)-c4cc(-c6c7ccccc7nc7ccccc67)ccc4CC5)cc3)cc(OCc3cc(C(C)(C)C)cc(C(C)(C)C)c3)c2)cc(C(C)(C)C)c1
5. COc1ccc2oc(=O)cc(C3c4ccc([nH]4)C(c4cc(=O)oc5ccc(OC)cc45)c4ccc([nH]4)C(c4cc(=O)oc5ccc(OC)cc45)c4ccc([nH]4)C(c4cc(=O)oc5ccc(OC)cc45)c4ccc3[nH]4)c2c1 (centres undefined)
6. O=c1cc(N2CCOCC2)oc2c(-c3ccc4c(c3)OCCO4)csc12
7. COC(=O)[C@@H](NC1(c2ccccc2)c2ccccc2-c2ccccc21)[C@H](OC(=O)[C@H]1CCCN1S(=O)(=O)c1ccccc1)C(=O)OC
8. COC(=O)N1c2ccc3c(nc(Cc4ccccc4)n3[C@H]3CCC[C@H](C(=O)O)C3)c2CC[C@@H]1C

7.15 µM
> 100 µM
5.45 µM
> 100 µM
11.2 µM
21.6 µM
> 100 µM
> 100 µM

For each listed entry, give its TGI.
1. CCOC(=O)C1C=C1C(C)(C)O (centres undefined)
2. Cc1ccc2c3c4c(ccc13)C(C)(C)OC4=C(C(C)C)C2=O

1: > 10 µM; 2: > 100 µM

Values from PubChem BioAssay (NCI)
